Test system: Rat fibroblasts (CREF)
Test: Peg3 promoter luciferase inhibitors, potency, dose response, cell-based, HeLa, CREF/GAPDH counter-screen panel (AID 624167)
Conditions: CREF/GAPDH counter-screens; run 1, dose range 1, at 100 µM (top of the series)
Measured inhibition, listed per entry.
Just the number in %, nothing appended.

# annotated cases, reported inhibition shown
CCCC(=O)NC(c1ccc(C(C)C)cc1)c1ccc2cccnc2c1O (stereo not given) = 17.4
CCCC(=O)NC(c1ccc(Cl)cc1)c1ccc2cccnc2c1O (stereo not given) = 12.3
CCc1ccc(/C=C2\SC(=S)N(CCCC(=O)NC3=NCCS3)C2=O)cc1 = 0.087
CN[C@H]1C[C@H]2c3[nH]c4ccc(-c5ccc(OC)cc5)cc4c3CCN2C(=O)[C@H]1[C@H](C)O = 96
CN(C(=O)COC(=O)/C=C/c1cccc([N+](=O)[O-])c1)C1CCS(=O)(=O)C1 (stereo not given) = 6.76
Cc1cc(C2=NNC(=NC3CC3)SC2)c(C)n1-c1ccccc1F = 96.9

Recorded inhibition of CC(C)CC1C(=O)N(Cc2cn(Cc3ccco3)nn2)CCS(=O)(=O)N1Cc1ccc(-c2ccc(F)cc2)cc1 (stereo not given) , please.
96.8

Again, but for CCCCC(=O)NC(c1ccc(OC)cc1)c1ccc2cccnc2c1O (stereo not given)
35.2

Again, but for O=C(Nc1ccccn1)c1cc2ccccc2o1
99.4

Again, but for NS(=O)(=O)c1ccc(CCNc2nn3c(-c4ccc(F)c(Cl)c4)cnc3s2)cc1
28.6

Again, but for COc1cc(OC)c2cc(C(=O)N/N=C/c3ccccc3O)[nH]c2c1
67.5

###

Target: PEG-3 (UniProt Q6IN02)
Sequence (Q6IN02 whole entry, looked up): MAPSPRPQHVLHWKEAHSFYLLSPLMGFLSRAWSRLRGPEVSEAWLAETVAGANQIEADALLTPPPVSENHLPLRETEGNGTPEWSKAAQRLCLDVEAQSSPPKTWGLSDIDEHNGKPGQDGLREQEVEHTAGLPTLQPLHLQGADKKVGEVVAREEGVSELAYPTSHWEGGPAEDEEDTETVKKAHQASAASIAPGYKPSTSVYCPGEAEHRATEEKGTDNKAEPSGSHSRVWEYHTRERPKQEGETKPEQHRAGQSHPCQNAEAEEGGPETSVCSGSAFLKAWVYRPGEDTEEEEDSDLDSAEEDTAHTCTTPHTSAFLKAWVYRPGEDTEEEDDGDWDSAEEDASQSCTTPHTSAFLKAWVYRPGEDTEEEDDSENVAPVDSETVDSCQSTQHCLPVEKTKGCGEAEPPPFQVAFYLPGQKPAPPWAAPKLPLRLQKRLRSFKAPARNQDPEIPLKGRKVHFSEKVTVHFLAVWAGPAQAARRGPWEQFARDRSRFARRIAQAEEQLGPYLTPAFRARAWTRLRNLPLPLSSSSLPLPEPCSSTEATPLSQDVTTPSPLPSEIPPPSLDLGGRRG
Test: Peg3 promoter luciferase inhibitors, potency, dose response, cell-based, HeLa, CREF/GAPDH counter-screen panel (AID 624167)
Conditions: CREF/GAPDH counter-screens; HeLa PEG-Prom luciferase reporter, overnight, run 2, dose range 1, at 100 µM (top of the series) unless noted
OBSERVATION TYPE: inhibition (%)
Just the number in %, nothing appended.

# annotated cases, reported inhibition shown
Nc1nonc1-n1nnc(C(=O)N/N=C/c2cc(Br)ccc2O)c1CNc1ccccc1 = 81.9
Cc1cc2c(c(/C=C/C(=O)c3ccccc3)c1)OC1(C=C2)Oc2ccccc2C(=O)N1C (stereo not given) = 101
COc1ccc(-c2cc(C(=O)N3CCN(c4ncccn4)CC3)c3ccccc3n2)c(OC)c1 = 47.8
Cc1nc(N2CCN(c3ccccn3)CC2)c2c(C)c(C(=O)Nc3ccccc3F)sc2n1 = 34.9
Cc1cc(Cl)n2ncc(-c3ccccc3)c2n1 = 102
CN(C)CCNc1ncnc2c1ncn2[C@H]1CN(Cc2ccc(-c3ccccc3)cc2)C[C@@H](CO)O1 = 101
CC(C)(C)c1ccc(OCCCNCc2ccccc2)cc1 = 98
COc1cc(/C=C2\SC(=S)N(CCC(=O)N3CCCCC3)C2=O)cc(OC)c1OC = 99

Recorded inhibition of COc1ccc(-c2nc3c(C(=O)NCCN(C)C)cccc3c3ccccc23)cc1 , please.
99.5

Again, but for COCCn1c(C)cc(C(=O)CSc2nnc(C)s2)c1C
94.9

###

Target: Tumor necrosis factor receptor superfamily member 10B (Homo sapiens) (UniProt O14763)
Sequence (O14763 whole entry, looked up): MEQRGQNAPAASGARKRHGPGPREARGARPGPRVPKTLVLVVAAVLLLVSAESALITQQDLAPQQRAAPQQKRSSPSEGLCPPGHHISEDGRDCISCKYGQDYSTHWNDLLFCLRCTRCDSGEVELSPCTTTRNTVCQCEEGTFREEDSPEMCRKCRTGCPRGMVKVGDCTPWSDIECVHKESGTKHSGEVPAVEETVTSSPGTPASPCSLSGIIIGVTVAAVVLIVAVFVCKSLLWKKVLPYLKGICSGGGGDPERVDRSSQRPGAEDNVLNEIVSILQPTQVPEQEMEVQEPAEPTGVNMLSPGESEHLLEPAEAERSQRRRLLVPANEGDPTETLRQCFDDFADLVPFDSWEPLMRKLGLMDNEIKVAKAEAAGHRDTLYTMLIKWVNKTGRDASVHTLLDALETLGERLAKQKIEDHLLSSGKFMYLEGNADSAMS
Assay: caspase-8 TRAIL sensitization, hit retest, confirmation, cell-based, NB7+caspase-8, with/without TRAIL, luminescence panel (AID 651596)
Conditions: NB7 neuroblastoma + caspase-8, TRAIL sensitization, luminescence viability, with TRAIL, mean of runs, at 10 µM, stronger effect = higher value
OBSERVATION TYPE: activity (%)
Just the number in %, nothing appended.

CN(NC(=O)c1cccc(Cl)c1)c1nc(-c2ccccc2)nnc1C(F)(F)F = 75.1
O=C(CCl)N1CCCC1c1ccc2c(c1)OCCO2 (stereo not given) = 95.6
O=C1CCCCC(=O)[C@H](OC(=O)c2ccccc2)C[C@H](c2ccccc2)O1 = 2.17
C#Cc1ccc([C@H]2C=C(C(=O)Nc3ccccc3)O[C@@H](OCc3ccc(CO)cc3)C2)cc1 = 92

Field: next compound
Recorded activity of Cc1nc(-c2ccc(C(=O)Nc3ccccc3F)cc2)cs1 , please.
81.9

###

Test system: Rat fibroblasts (CREF)
Test: Peg3 promoter luciferase inhibitors, potency, dose response, cell-based, HeLa, CREF/GAPDH counter-screen panel (AID 624167)
Details: CREF/GAPDH counter-screens; run 1, dose range 1, at 100 µM (top of the series)
inhibition of 80% or higher: yes (1). Under 80%: no (0).

Solved entries (count: 5):
COc1ccc(C(NC(=O)C(C)C)c2ccc3cccnc3c2O)cc1 (stereo unspecified) = no (0)
Nc1ccc(-c2nc3ccc(C(=O)O)cc3s2)cc1 = yes (1)
CC(=O)CSc1ccc(-c2nc3cc(C)c(C)cc3[nH]2)cn1 = yes (1)
CC(=O)NC(c1ccc(N(C)C)cc1)c1cc(Cl)c2cccnc2c1O (stereo unspecified) = no (0)
CS(=O)(=O)Nc1cccc(NC(=O)C2Cc3c(-c4ccccc4)ccnc3O2)c1 (stereo unspecified) = no (0)

Now, please, on to the next compound.
// inclusive: inhibition at least 80%? input: CCOc1ccc(-c2ccc(SC)nn2)cc1
yes (1)

###

Experiment: caspase-8 TRAIL sensitization, hit retest, confirmation, cell-based, NB7+caspase-8, with/without TRAIL, luminescence panel (AID 651596)
Details: NB7 neuroblastoma + caspase-8, without TRAIL, luminescence viability, without TRAIL, mean of runs, at 10 µM
So basically: is activity under 40%? Then class 1. Not under? Then class 0.

Solved entries (count: 3):
Cc1cc2nc3ccc(N(C)C)cc3nc2cc1N = class 1
c1ccc(COc2ncnc3c2ncn3CCCNCC(c2ccccc2)c2ccccc2)cc1 = class 0
COCCNC(=O)c1cc(-c2ccc(-c3ccccc3)cc2)nc2ccccc12 = class 0

Lab log: compare recorded activity with 40%; is it strictly lower for COc1ccc(OC)c(Nc2nc(N)nc(CCl)n2)c1 ?
class 0

Again, but for CCOc1ccc(-c2nc(-c3cccnc3)no2)cc1
class 0

###

Assay: inhibitors of PAF-induced NFkB signaling in CF airway cells, dose response, cell-based, uHTS hits, panel, cytotoxicity readout (AID 624344)
Details: CF bronchial epithelial cells, PAF-induced NFkB reporter inhibition, with PAF, run 2; at 79 µM (top of the series) unless noted
Measured inhibition, listed per entry.
Just the number in %, nothing appended.

O=C(NNc1ccccc1Br)C(O)(c1cccc(C(F)(F)F)c1)c1cccc(C(F)(F)F)c1 = 104
NC(=O)N/N=C/c1c(Sc2nnnn2-c2ccccc2)nc2ccccn2c1=O = 105
CCN(CC(=O)Nc1ccc(OC)cc1)C(=O)c1cc(-c2cccs2)nn1-c1ccccc1 = 98.4
COc1ccc(-c2csc(/C(C#N)=C\c3ccc(O)c([N+](=O)[O-])c3)n2)cc1OC = 102
C=C1C(=O)O[C@H]2C[C@H]1[C@@H](OC(C)=O)C/C(C)=C/CC/C(C)=C\CC[C@]2(C)O = 97.5
CS(=O)(=O)c1ccc2nc(NC(=O)Nc3cccc(Cl)c3)sc2c1 = 83.9

Field: next molecule
Recorded inhibition of O=C1Nc2ccccc2/C1=C/c1ccnc2ccccc12 , please.
111

###

Molecular target: Sentrin-specific protease 7 (Homo sapiens)
Experiment: SENP7 protease inhibitors, retest, confirmation, biochemical, luminescence, single concentration (AID 488917)
Conditions: recombinant SENP7, Z-RLRGG-aminoluciferin luminescence, 40 min; at 12.5 µM; stronger effect = higher value
The list shows a part of the results.
inhibition of 70% or higher: True. Under 70%: False.

Solved entries (count: 3):
CCCCSc1nnc(-c2ccc(C)cc2)o1 = True
O=C(Nc1ccccc1)c1ccc2c(c1)OCO2 = True
Cc1cccc(OCC(=O)Nc2ccccc2F)c1 = True

// inclusive: inhibition at least 70%? input: CCOc1ccc(-c2nnc(-c3ccco3)o2)cc1
True

Again, but for C/C(=N\NC(=O)c1ccc(C)cc1)C1C(=O)c2ccccc2C1=O
True

Again, but for CC(=C/c1ccccc1)/C=N/NC(=O)c1cc(C)oc1C
False

###

Target: Tumor necrosis factor receptor superfamily member 10B (Homo sapiens)
Test: caspase-8 TRAIL sensitization, hit retest, confirmation, cell-based, NB7+caspase-8, with/without TRAIL, luminescence panel (AID 651596)
Conditions: NB7 neuroblastoma + caspase-8, TRAIL sensitization, luminescence viability, with TRAIL, mean of runs, at 10 µM, stronger effect = higher value
OBSERVATION TYPE: activity
Provide the measurement as a number trailed by its unit.

# annotated cases, reported activity shown
CN1/C(=C\C(=O)C[n+]2ccc(C(=O)c3ccccc3)cc2)C(C)(C)c2ccccc21 = 15.8%
O=C(/C=C/c1ccccc1)NC(NC(=S)Nc1ccc(Cl)cc1)C(Cl)(Cl)Cl (stereo unspecified) = 37.1%
COc1ccc2c(=O)c(-c3nc(C)cs3)coc2c1 = 69.9%
N#Cc1c(/N=C/c2cccs2)sc2c1CCCCC2 = 65.7%
CN(NC(=O)C(C)(C)C)c1nc(-c2ccccc2)nnc1C(F)(F)F = 43.9%
CCN(CC)CCCNc1ccc(-c2nnc(-c3ccc(OCC(C)C)cc3)o2)cn1 = 82.5%
Cc1nnc(NC(=O)c2nc(S(=O)(=O)Cc3ccccc3)ncc2Cl)s1 = 94.5%
N/C(Cc1ccc(Cl)c(Cl)c1)=N\OC(=O)c1cccs1 = 49.6%
N=c1c2c(n(Cc3ccc(Cl)c(Cl)c3)c3c1CCC3)CCCC2 = 80.6%
O=c1[nH]c(N/N=C\c2ccc3c(c2)OCO3)nc2ccccc12 = 53.6%

Field: next molecule
Missing value: activity, Tumor necrosis factor receptor superfamily member 10B (Homo sapiens), entry COc1ccc(C(=O)Nc2ccccc2C(=O)N/N=C/c2ccncc2)cc1OC . Fill in?
97.7%
